- Test system: S2 cells
- method: Primary small molecule screen in ZO Fortified, CyQUANT Direct Proliferation Assay
- Assay type: cell-based, Drosophila
- statedConditions: 4 days, z vs negative control, hit cutoffs z=±3
- Method: Five stock plates of randomized compounds (410 total) were prepared at 75 μM in water (1:133 dilution) using an automated liquid handler (Eppendorf EPMotion 5075). […] Cells were rinsed three times in phosphate buffered saline (PBS) and seeded at 50,000 cells/well (50 μL) in ZO Fortified. […] Plates were then treated with CyQUANT® (0.25× final concentration) for one hour at 25° C., and fluorescent intensity was measured with a plate reader (Biotek Synergy H2). […]
Threshold -10: compound z-score (zS2) strictly smaller gives 1 (yes), otherwise 0 (no).

Lookup: Given CC(C)(C)c1cc(/C=C(\C#N)C(N)=S)cc(C(C)(C)C)c1O [AG-879] , is recorded compound z-score (zS2) strictly lower than -10?
Found: 1 (yes)

Lookup: Given CN[C@@H]1C[C@H]2O[C@@](C)([C@@H]1OC)n1c3ccccc3c3c4c(c5c6ccccc6n2c5c31)C(=O)NC4 [staurosporine] , is recorded compound z-score (zS2) strictly lower than -10?
Found: 1 (yes)

Lookup: Given Cc1cc(/C=C/c2ccc3cc(N(C)C)ccc3[n+]2C)c(C)n1-c1ccccc1 [pyrvinium pamoate] , is recorded compound z-score (zS2) strictly lower than -10?
Found: 1 (yes)

Lookup: Given CO[C@@H]1[C@H](N(C)C(=O)c2ccccc2)C[C@H]2O[C@]1(C)n1c3ccccc3c3c4c(c5c6ccccc6n2c5c31)C(=O)NC4 [PKC-412] , is recorded compound z-score (zS2) strictly lower than -10?
Found: 1 (yes)

Lookup: Given NCCCCNCCCN [spermidine] , is recorded compound z-score (zS2) strictly lower than -10?
Found: 0 (no)

Lookup: Given NCCCNCCCCNCCCN [spermine] , is recorded compound z-score (zS2) strictly lower than -10?
Found: 0 (no)

Values were extracted from patent US20160251614A1.
